Entries annotated with measured self-cleavage
B1: HDV Ribozyme (parent)
chain: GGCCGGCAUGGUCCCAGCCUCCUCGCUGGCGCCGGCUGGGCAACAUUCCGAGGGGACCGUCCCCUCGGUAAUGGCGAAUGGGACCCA

variants of: B1; assay: self-cleavage, relative activity (ratio to wild type); higher = more cleavage; co-transcriptional
// keep it numeric: no unit symbol after the value

Mutant	self-cleavage
C13A U47C	0.277
A70C U79G	0.554
G67U A83C	0.635

stdin: Which self-cleavage reading was recorded for the variant G39U A83U ?
stdout: 0.259

stdin: May I ask what self-cleavage has been recorded for C32A C33G ?
stdout: 0.0405

stdin: For U20A U69C , what is its reported self-cleavage?
stdout: 0

stdin: Which measured self-cleavage value corresponds to U23A C44U ?
stdout: 0.566

stdin: Bench note: what self-cleavage did U12A A56G show?
stdout: 0.196

stdin: Can you look up the measured self-cleavage of C32A C85G for me?
stdout: 0.252

stdin: Record request: self-cleavage value, item G29A G39C
stdout: 0.0941

stdin: Entry A8G A83G : reported self-cleavage = ?
stdout: 0.88

stdin: Consider the variant shown here: G54C C85U What is its recorded self-cleavage?
stdout: 0.892

stdin: Can you share its self-cleavage? I mean this variant: A83G C86U
stdout: 1.08

stdin: For the variant shown here, C26G C30A , give the reported self-cleavage.
stdout: 0.623

stdin: Please give the measured self-cleavage for this variant: U23C G38C
stdout: 0.277

stdin: Give its self-cleavage value. Item: U46C G74A
stdout: 0.48

stdin: Any idea what self-cleavage was measured for C41G C57U ?
stdout: 1.04

stdin: // lookup self-cleavage for C19U A77U
stdout: 0.107

stdin: Quick check: self-cleavage of A16G C64G ?
stdout: 0.807

stdin: For the variant shown here, C19A C21A , give the reported self-cleavage.
stdout: 0.142

stdin: Using the record for C7A G34A , report its self-cleavage.
stdout: 0.175
